measurement.notes: Stat Signaling Pathway (AID 446);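 note: ME-180 cervical cancer cells given 40 pM IL-6 alongside compound; SIE-controlled beta-lactamase reporter measured as 460/530 nm FRET emission ratio; % is set by controls: 0 for no effect and ±100 for the full control effect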
experimental.parameters: ME-180 (cervical carcinoma) SIE beta-lactamase reporter, IL-6 stimulated, 5 h; at 7.69 µM (top of the series) unless noted
Results filed as inconclusive are left out.

>  <input.smiles>
CN(C)Cc1ccccc1-c1nccc(NCc2cccs2)n1

>  <activity, negative = inhibition, %>
0.159

$$$$
>  <input.smiles>
COc1cccc(Cn2c(=O)c(-c3cn(C)c4ccccc34)nc3cnc(N4CCOCC4)nc32)c1

>  <activity, negative = inhibition, %>
10.6

$$$$
>  <input.smiles>
COc1ccc(Oc2ncc3nc(CCc4ccccc4)c(=O)n(C)c3n2)cc1

>  <activity, negative = inhibition, %>
-11.3

$$$$
>  <input.smiles>
CS(=O)(=O)N1CCC[C@@]2(CCN(c3ncccn3)C2)C1

>  <activity, negative = inhibition, %>
-19.8

$$$$
